# Tested on: HuH-7 hepatocellular carcinoma cells
# experimental-details: Methylene blue staining proliferation assay (MBS)
# Format: cell-based
# condition: Homo sapiens, 72 hours after compound addition, read-out: HUH7 proliferation (nM) MBS
endpoint-label: IC50 (nM)
# unit: nM | format: bare number

Query: Param item = COCCNc1cc(NC(=O)N2CCCc3cc(CN4CCN(C)CC4=O)c(C=O)nc32)ncc1C#N [Example 83] ; retrieve measured IC50.
Result: 12
